Hi there, I'd appreciate the recorded Average Max % Inhib. (pERK 1/2, CHO cells expressing human TrkA) for every entry that follows.
- system-name: T1, canine beta-NGF (cNGF) (canine, UniProt Q29074 110-229 (pig entry))
- T1 chain: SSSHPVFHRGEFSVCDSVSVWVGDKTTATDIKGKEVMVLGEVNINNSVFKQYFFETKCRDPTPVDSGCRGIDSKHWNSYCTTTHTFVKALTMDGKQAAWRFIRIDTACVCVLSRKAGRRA
- test-description: cell-based or functional assay
Write the answer as a number in %, unit excluded.

Q: Return value of Average Max % Inhib. (pERK 1/2, CHO cells expressing human TrkA) for input 31F05-02B03 (antibody, IgG1, V domains shown) VH: EVQLQQSGPGLVAPSQSLSITCTVSGFSLTGYGVNWVRQPPGKGLEWLGMIWGDGSTDYNSALKSRLSISKDNSKSQVFLKMNSLQTDDTARYYCARDGYYYGTTWYFDVWGAGTTVTVSS VL: DIQMTQTTSSLSASLGDRVTISCRASQDISNYLNWYQQKPDGTIKLLIYYTSRLHSGVPSRFSGSGSGTDYSLTISNLEQEDIATYFCQQGSTLPRTFGGGT , no commentary.
Result: 86.2

Q: Give Average Max % Inhib. (pERK 1/2, CHO cells expressing human TrkA) for the following binder: 16G01-02F03 (antibody, IgG2a, V domains shown) VH: EVQLQESGAELVKPGASVKLSCKASGYTFTNYWMHWVKQRPGQGLEWIGHIDPSDGETHYNQKFKDKATLTVDKSSSTAYMQLTGLTSEDSAVYYCARFLPDYWGQGTSVTVSS VL: DIVLTQTPAIMSASPGEKVTMTCRASSSVSSIYLHWYQQKPGSSPKLWIYSTSNLASGVPARFSGSGSGTSYSLTVSSVEAEDAATYYCQLYDNSPLTFGAGT
Result: 27.7

Q: For the binder 26C08-02F06 (antibody, IgG1, V domains shown) VH: EVKLEESGPGLVAPSQSLSITCTVSGFSLTGYGVNWVRQPPGKGLEWLGMIWGDGSTDYNSALKSRLSISKDNSKSQVFLKMNSLQTDDTARYYCARGGYDYDVSFFDYWGQGTTLTVSS VL: DIVLTQTTSSLSASLGDRVTISCRASQDISNYLNWYQQKPDGTVKLLIYYTSRFHSGVPSRFSGSGSGTDYSLTISNLEHEDIATYFCQQGNTLPYTFGGGT , report Average Max % Inhib. (pERK 1/2, CHO cells expressing human TrkA).
Result: 57.4
